Taken from the RepoRT retention time repository (doi:10.1093/pcp/pcn183).

- Assay notes: RP, Waters ACQUITY UPLC BEH C18, 38 °C, 0.24 mL/min; A: water + 0.1% formic acid, pH 3; B: acetonitrile + 0.1% formic acid, pH 3; gradient (min/%B) 0/0 0.25/0 0.4/9 0.8/17 1.9/100 2.1/100 2.11/0 3/0
- Recorded conditions: stereoisomer not certain
Counter-ions that a name gives are not always drawn.
Measured metric: LC retention time (min)

Before answering, review these 8 worked examples.
1. CCC(C(=O)O)C(=O)O = 1.12
2. Nc1nc2c(ncn2C2CC(O)C(COP(=O)(O)O)O2)c(=O)[nH]1 (configuration not stated) [2'-deoxyguanosine 5'-monophosphate sodium salt hydrate] = 0.72
3. COc1cc(CNC(=O)CCCCC=CC(C)C)ccc1O = 1.93
4. Cc1ncc(C[n+]2csc(CCOP(=O)(O)O)c2C)c(N)n1 [Thiamine monophosphate chloride dihydrate] = 0.19
5. NC(=O)NC(CC(=O)O)C(=O)O (racemic) = 0.12
6. CC1OC(OC2C(Oc3cc(O)c4c(=O)c(O)c(-c5ccc(O)cc5)oc4c3)OC(CO)C(O)C2O)C(O)C(O)C1O (configuration not stated) [kaempferol-7-O-neohesperidoside] = 1.44
7. O=S(=O)(O)Oc1c[nH]c2ccccc12 [3-Indoxylsulfate potassium salt] = 1.24
8. NC(CCC(=O)NC(CS)C(=O)NCC(=O)O)C(=O)O [L-Glutathione (reduced form)] = 0.95

I = N[C@H](CO)Cc1cnc[nH]1 [L-Histidinol dihydrochloride]
II = C=C(CC(=O)O)C(=O)O
III = Cc1cc2nc3cc(C)c(N)cc3[n+](-c3ccccc3)c2cc1N
IV = N[C@@H](CSCC(=O)O)C(=O)O
Arrange the 4 entries by LC retention time so the values rise. Field: ranking. Enter the labels in the order requested. I, IV, II, III

1 = CN1CC(=O)NC1=N [Creatinine,anhydrous]
2 = COc1cc(C=Cc2cc(O)cc(OC3OC(CO)C(O)C(O)C3O)c2)ccc1O (configuration not stated) [E-4,5'-dihydroxy-3-methoxy-3'-glucopyranosylstilbene]
Please let me know which one, 1 or 2 , has a lower measured LC retention time value. Label of pick, please. 1
(1: 0.19 min, 2: 1.42 min)

P = NCCC[C@H](N)C(=O)O [L-Ornithine monohydrochloride]
Q = Nc1ccccc1C(=O)CC(N)C(=O)O (configuration not stated)
Compare P and Q by numeric LC retention time and name the larger one. Label of pick, please. Q
(Q: 1.1 min, P: 0.14 min)
